Listed compounds paired with reported logP
Reply with just the number.

# compound, logP
rows = [
    ("Cc1nc(-c2ccc(C(C)C(=O)O)cc2Cl)sc1C (configuration not stated)", 3.94),
]

Req: Name the recorded logP for CCc1cnc(-c2ccc(C(C)C(=O)O)cc2)s1 (configuration not stated) .
Resp: 3.72

Req: Do the same for Cc1cnc(-c2ccc(C(C)C(=O)O)cc2F)s1 (configuration not stated) please
Resp: 3.55

Req: And what about the compound CCCCc1csc(-c2ccc(C(C)C(=O)O)cc2)n1 (configuration not stated) ?
Resp: 4.83

Req: Can you handle CC(C(=O)O)c1ccc(-c2nccs2)c(O)c1 (configuration not stated) next?
Resp: 3.18

Req: Cc1nc(-c2ccc(C(C)C(=O)O)cc2)sc1C (configuration not stated) , same question.
Resp: 3.36

Req: Also check COCc1csc(-c2ccc(C(C)C(=O)O)cc2)n1 (configuration not stated)
Resp: 2.56

====

Rule: YES for logP not less than 3, NO for anything less.

# compound, category
rows = [
    ("CC(C(=O)O)c1ccc(-c2nccs2)cc1 (centres undefined)", "NO"),
    ("CCc1nc(-c2ccc(C(C)C(=O)O)cc2Cl)sc1C (centres undefined)", "YES"),
    ("CC(C(=O)O)c1ccc(-c2nccs2)c([N+](=O)[O-])c1 (centres undefined)", "NO"),
    ("CCc1cnc(-c2ccc(C(C)C(=O)O)cc2Cl)s1 (centres undefined)", "YES"),
    ("CCCCc1csc(-c2ccc(C(C)C(=O)O)cc2Cl)n1 (centres undefined)", "YES"),
    ("CC(C(=O)O)c1ccc(-c2nccs2)c(N)c1 (centres undefined)", "NO"),
]

Req: Hi, just wondering whether CC(C(=O)O)c1ccc(-c2nccs2)c(Cl)c1 (centres undefined) shows logP of 3 or higher.
Resp: YES

Req: And the next one, CCc1csc(-c2ccc(C(C)C(=O)O)cc2)n1 (centres undefined) ?
Resp: YES

Req: Similarly, Cc1nc(-c2ccc(C(C)C(=O)O)cc2F)sc1C (centres undefined) ?
Resp: YES

Req: Also need CCCCc1csc(-c2ccc(C(C)C(=O)O)cc2F)n1 (centres undefined) , thanks.
Resp: YES

Req: Also CC(C(=O)O)c1ccc(-c2nc3c(s2)CCCC3)cc1 (centres undefined) ?
Resp: YES

Req: Again, but for CC(C(=O)O)c1ccc(-c2nccs2)c(Br)c1 (centres undefined)
Resp: YES

====

Quick list: logP per entry.

Recorded logP, per entry:
# compound, result
rows = [
    ("Cc1csc(-c2ccc(C(C)C(=O)O)cc2)n1 (configuration not stated)", 3.03),
    ("CC(C)c1csc(-c2ccc(C(C)C(=O)O)cc2)n1 (configuration not stated)", 4.29),
    ("CC(C(=O)O)c1ccc(-c2nc(CO)cs2)cc1 (configuration not stated)", 2.25),
    ("CCc1csc(-c2ccc(C(C)C(=O)O)cc2Cl)n1 (configuration not stated)", 4.28),
    ("Cc1csc(-c2ccc(C(C)C(=O)O)cc2Cl)n1 (configuration not stated)", 3.65),
    ("Cc1csc(-c2ccc(C(C)C(=O)O)cc2F)n1 (configuration not stated)", 3.52),
]

Req: Given the compound CCc1nc(-c2ccc(C(C)C(=O)O)cc2)sc1C (configuration not stated) , what is its reported logP?
Resp: 3.99

Req: Try this compound next: CNC(=O)c1csc(-c2ccc(C(C)C(=O)O)cc2)n1 (configuration not stated)
Resp: 2.45

Req: Follow-up item: CCc1csc(-c2ccc(C(C)C(=O)O)cc2F)n1 (configuration not stated)
Resp: 4.16

Req: Try this compound too: CSc1cc(C(C)C(=O)O)ccc1-c1nccs1 (configuration not stated)
Resp: 3.02

Req: Also, Cc1cnc(-c2ccc(C(C)C(=O)O)cc2Cl)s1 (configuration not stated) please.
Resp: 3.66

Req: Also, C=CCc1csc(-c2ccc(C(C)C(=O)O)cc2)n1 (configuration not stated) please.
Resp: 4.11

====

Collected logP values appear next to each entry.
The response must contain the number and no unit.

# compound, logP
measured = [
    ("Cc1cc(C(C)C(=O)O)ccc1-c1nccs1 (stereo not given)", 3.06),
]

Req: Entry CCc1cnc(-c2ccc(C(C)C(=O)O)cc2F)s1 (stereo not given) has what logP?
Resp: 4.1

Req: Field entry: CC(C(=O)O)c1ccc(-c2nc(C(N)=O)cs2)cc1 (stereo not given)
Resp: 2.17

Req: Similarly, CC(C(=O)O)c1ccc(-c2nc(-c3ccccc3)cs2)cc1 (stereo not given) ?
Resp: 4.95

====

Parameter threshold = 3. Response is met when logP meets or exceeds it, else not met.

# compound, category
measured = [
    ("C=Cc1csc(-c2ccc(C(C)C(=O)O)cc2)n1 (stereo unspecified)", "met"),
    ("CC(=O)c1csc(-c2ccc(C(C)C(=O)O)cc2)n1 (stereo unspecified)", "not met"),
    ("COc1cc(C(C)C(=O)O)ccc1-c1nccs1 (stereo unspecified)", "not met"),
    ("CC(C(=O)O)c1ccc(-c2nc(C(F)(F)F)cs2)cc1 (stereo unspecified)", "met"),
    ("CCc1nc(-c2ccc(C(C)C(=O)O)cc2F)sc1C (stereo unspecified)", "met"),
]

Req: Kindly determine if logP recorded for Cc1cnc(-c2ccc(C(C)C(=O)O)cc2)s1 (stereo unspecified) is above or exactly 3.
Resp: met

Req: Now the same for CC(C)c1csc(-c2ccc(C(C)C(=O)O)cc2F)n1 (stereo unspecified)
Resp: met

Req: Item: CC(C(=O)O)c1ccc(-c2nc(C(=O)N(C)C)cs2)cc1 (stereo unspecified)
Resp: not met

Req: Input CC(C(=O)O)c1ccc(-c2nccs2)c(F)c1 (stereo unspecified)
Resp: met

Req: What do you have for CC(C)c1csc(-c2ccc(C(C)C(=O)O)cc2Cl)n1 (stereo unspecified) ?
Resp: met
